Origin of values: PubChem BioAssay AID2060607

Tested on: 876862-298-R-J1-PDC complex spheroids, viability % test/control
ASSAY INFO: Anticancer human tumor 876862-298-R-J1-PDC patient-derived endometrial carcinoma cell line growth inhibition [CLK]; active = viability on the fitted dose curve at most 10% of control; inactive = the rest
APPLIED CONDITIONS: second compound 10 µM; first compound 0.3 µM
I would appreciate it if you answered using one of these outcomes: active, inactive

What was the test verdict on C=CC(=O)Nc1cc(Nc2nccc(-c3cn(C)c4ccccc34)n2)c(OC)cc1N(C)CCN(C)C + CNC(=O)c1ccc(Nc2nc(OC3CCCC3)c3c(-c4ccc5nc(C)oc5c4)c[nH]c3n2)c(OC)c1 ?
inactive

What classification did CC(C)CC(NC(=O)C(Cc1ccccc1)NC(=O)c1cnccn1)B(O)O (stereo unspecified) + CNC(=O)c1ccc(Nc2nc(OC3CCCC3)c3c(-c4ccc5nc(C)oc5c4)c[nH]c3n2)c(OC)c1 end up with in this test?
active

For NC(=O)C(=Cn1cnc(-c2cc(C(F)(F)F)cc(C(F)(F)F)c2)n1)c1cncnc1 + CN1CCN(c2cc(C(=O)Nc3cc4cc(-c5cnn(C)c5)ccc4cn3)ccn2)CC1 , what call appears in the results of this test?
active

Record lookup: outcome of this test for C=CC(=O)Nc1cc(Nc2nccc(-c3cn(C)c4ccccc34)n2)c(OC)cc1N(C)CCN(C)C + CN1CCN(c2cc(C(=O)Nc3cc4cc(-c5cnn(C)c5)ccc4cn3)ccn2)CC1 ?
active

Entry CC(C)CC(NC(=O)C(Cc1ccccc1)NC(=O)c1cnccn1)B(O)O (stereo unspecified) + CN1CCN(c2cc(C(=O)Nc3cc4cc(-c5cnn(C)c5)ccc4cn3)ccn2)CC1 : call = ?
active

So what was the verdict on NC(=O)C(=Cn1cnc(-c2cc(C(F)(F)F)cc(C(F)(F)F)c2)n1)c1cncnc1 + CNC(=O)c1ccc(Nc2nc(OC3CCCC3)c3c(-c4ccc5nc(C)oc5c4)c[nH]c3n2)c(OC)c1 in this test?
active

###

Test system: 876862-298-R-J1-PDC complex spheroids, viability % test/control
ASSAY INFO: Anticancer human tumor 876862-298-R-J1-PDC cell line growth inhibition [CLK];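 note: spheroids exposed to drugs for 7 days before readout; 100% = DMSO vehicle control wells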
APPLIED CONDITIONS: second compound 3.16 µM; first compound 0.316 µM; active compounds read low
Sorting guide: entries reporting viability, T/C beneath 3% go in the Yes pile, the rest go in the No pile.

Please check: viability, T/C for CC(=O)O[C@H]1C(=O)[C@@]2(C)[C@H]([C@H](OC(=O)c3ccccc3)[C@]3(O)C[C@H](OC(=O)[C@H](O)[C@@H](NC(=O)c4ccccc4)c4ccccc4)C(C)=C1C3(C)C)[C@]1(OC(C)=O)CO[C@@H]1C[C@@H]2O + CNC(=O)c1ccc(Nc2nc(OC3CCCC3)c3c(-c4ccc5nc(C)oc5c4)c[nH]c3n2)c(OC)c1 , strictly under 3% or not?
No

I wonder whether CCCS(=O)(=O)Nc1ccc(F)c(C(=O)c2c[nH]c3ncc(-c4ccc(Cl)cc4)cc23)c1F + CNC(=O)c1ccc(Nc2nc(OC3CCCC3)c3c(-c4ccc5nc(C)oc5c4)c[nH]c3n2)c(OC)c1 has viability, T/C below 3%. Can you tell?
No

Could you please tell me whether viability, T/C recorded for CC(CO)NC(=O)c1cc(-c2ccc(Cl)cc2)nn(-c2cnn(C)c2)c1=O (stereo not given) + CNC(=O)c1ccc(Nc2nc(OC3CCCC3)c3c(-c4ccc5nc(C)oc5c4)c[nH]c3n2)c(OC)c1 is less than 3%?
No

Given the entry CC(=O)O[C@H]1C(=O)[C@@]2(C)[C@H]([C@H](OC(=O)c3ccccc3)[C@]3(O)C[C@H](OC(=O)[C@H](O)[C@@H](NC(=O)c4ccccc4)c4ccccc4)C(C)=C1C3(C)C)[C@]1(OC(C)=O)CO[C@@H]1C[C@@H]2O + CN1CCN(c2cc(C(=O)Nc3cc4cc(-c5cnn(C)c5)ccc4cn3)ccn2)CC1 , would its reported viability, T/C be below 3%?
Yes

Does C#Cc1c(F)ccc2cc(O)cc(-c3ncc4c(N5CC6CCC(C5)N6)nc(OCC56CCCN5CC(F)C6)nc4c3F)c12 (stereo not given) + CN1CCN(c2cc(C(=O)Nc3cc4cc(-c5cnn(C)c5)ccc4cn3)ccn2)CC1 have viability, T/C strictly under 3%?
Yes

Strictly below 3%: is that where viability, T/C of CCCS(=O)(=O)Nc1ccc(F)c(C(=O)c2c[nH]c3ncc(-c4ccc(Cl)cc4)cc23)c1F + CN1CCN(c2cc(C(=O)Nc3cc4cc(-c5cnn(C)c5)ccc4cn3)ccn2)CC1 sits?
No

Is viability, T/C strictly under 3% for the entry O=c1[nH]cc(F)c(=O)[nH]1 + CNC(=O)c1ccc(Nc2nc(OC3CCCC3)c3c(-c4ccc5nc(C)oc5c4)c[nH]c3n2)c(OC)c1 ?
No

Quick check: does O=c1[nH]cc(F)c(=O)[nH]1 + CN1CCN(c2cc(C(=O)Nc3cc4cc(-c5cnn(C)c5)ccc4cn3)ccn2)CC1 have viability, T/C under 3%?
Yes

Strictly below 3% in viability, T/C? COc1cccc2c1C(=O)c1c(O)c3c(c(O)c1C2=O)CC(O)(C(=O)CO)CC3OC1CC(N)C(O)C(C)O1 (stereo not given) + CNC(=O)c1ccc(Nc2nc(OC3CCCC3)c3c(-c4ccc5nc(C)oc5c4)c[nH]c3n2)c(OC)c1
No

Bench note: check whether O=C(c1cc(Cc2n[nH]c(=O)c3ccccc23)ccc1F)N1CCN(C(=O)C2CC2)CC1 + CNC(=O)c1ccc(Nc2nc(OC3CCCC3)c3c(-c4ccc5nc(C)oc5c4)c[nH]c3n2)c(OC)c1 shows viability, T/C below 3%
No

###

Tested on: 876862-298-R-J1-PDC complex spheroids, viability % test/control
ASSAY INFO: Anticancer human tumor 876862-298-R-J1-PDC cell line growth inhibition [CLK];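 note: spheroids exposed to drugs for 7 days before readout; 100% = DMSO vehicle control wells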
APPLIED CONDITIONS: second compound 1 µM; first compound 0.3 µM; active compounds read low
Provide the recorded viability, T/C for the entries that follow.

For the molecule shown here, NC(=O)C(=Cn1cnc(-c2cc(C(F)(F)F)cc(C(F)(F)F)c2)n1)c1cncnc1 + CN1CCN(c2cc(C(=O)Nc3cc4cc(-c5cnn(C)c5)ccc4cn3)ccn2)CC1 , give the reported viability, T/C.
0.36%

For the molecule NC(=O)C(=Cn1cnc(-c2cc(C(F)(F)F)cc(C(F)(F)F)c2)n1)c1cncnc1 + CNC(=O)c1ccc(Nc2nc(OC3CCCC3)c3c(-c4ccc5nc(C)oc5c4)c[nH]c3n2)c(OC)c1 , what viability, T/C is on record?
6.44%

Entry under review: C=CC(=O)Nc1cc(Nc2nccc(-c3cn(C)c4ccccc34)n2)c(OC)cc1N(C)CCN(C)C + CNC(=O)c1ccc(Nc2nc(OC3CCCC3)c3c(-c4ccc5nc(C)oc5c4)c[nH]c3n2)c(OC)c1 . Reported viability, T/C?
27.4%

###

For each record, write down the corresponding viability, T/C.
System: 876862-298-R-J1-PDC complex spheroids, viability % test/control
ASSAY INFO: Anticancer human tumor 876862-298-R-J1-PDC cell line growth inhibition [CLK];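 note: spheroids exposed to drugs for 7 days before readout; 100% = DMSO vehicle control wells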
APPLIED CONDITIONS: second compound 1 µM; first compound 0.316 µM; active compounds read low
Hi! Could you send only the number? It should be in %, unit omitted.

What value of viability, T/C has been reported for the following molecule? COC1C=CCC(C)C(C)S(=O)(=O)NC(=O)c2ccc3c(c2)N(CC2CCC21)CC1(CCCc2cc(Cl)ccc21)CO3 (stereo not given) + CN1CCN(c2cc(C(=O)Nc3cc4cc(-c5cnn(C)c5)ccc4cn3)ccn2)CC1
25.5

I'd like to know its viability, T/C. The molecule in question is CC(=O)O[C@H]1C(=O)[C@@]2(C)[C@H]([C@H](OC(=O)c3ccccc3)[C@]3(O)C[C@H](OC(=O)[C@H](O)[C@@H](NC(=O)c4ccccc4)c4ccccc4)C(C)=C1C3(C)C)[C@]1(OC(C)=O)CO[C@@H]1C[C@@H]2O + CN1CCN(c2cc(C(=O)Nc3cc4cc(-c5cnn(C)c5)ccc4cn3)ccn2)CC1
0.6

Bench note: what viability, T/C did CCN1CCN(Cc2ccc(Nc3ncc(F)c(-c4cc(F)c5nc(C)n(C(C)C)c5c4)n3)nc2)CC1 + CN1CCN(c2cc(C(=O)Nc3cc4cc(-c5cnn(C)c5)ccc4cn3)ccn2)CC1 show?
2.25

// viability, T/C lookup, key: C#Cc1c(F)ccc2cc(O)cc(-c3ncc4c(N5CC6CCC(C5)N6)nc(OCC56CCCN5CC(F)C6)nc4c3F)c12 (stereo not given) + CNC(=O)c1ccc(Nc2nc(OC3CCCC3)c3c(-c4ccc5nc(C)oc5c4)c[nH]c3n2)c(OC)c1
27.7

Which viability, T/C value belongs to COc1ccc([C@@H](O)c2cc(-c3ncnc4cc(N5CCOCC5)ccc34)c(F)cc2Cl)nn1 + CNC(=O)c1ccc(Nc2nc(OC3CCCC3)c3c(-c4ccc5nc(C)oc5c4)c[nH]c3n2)c(OC)c1 ?
30.4
